For each of the compounds below, state its pIC50.
TEST SYSTEM: DNA-PK phosphorylation at serine 2056 (Homo sapiens (Human))
PROTOCOL DETAILS: DNA-PK phosphorylation at serine 2056 (cellular), bleomycin-treated HCT116 cells, ELISA
Format: cell-based
RECORDED CONDITIONS: cellular; HCT116 cells, 10 μM bleomycin, six hours; read-out: IC50 pDNA-PK
pIC50: −log10 of the molar value.

// known answers, use as guide
{"columns": ["COMPOUND", "ENDPOINT VALUE"],
 "data": [
  ["OC(c1cccnn1)c1cc(-c2ncnc3cc(N4CCOCC4)ccc23)c(F)cc1Cl (single isomer, unassigned) [Example 30]", "> 6.30"],
  ["COc1cnc(Cl)c(C(O)c2ccc(F)c(-c3ncnc4cc(N5CCOCC5)ccc34)c2)c1 (stereo not shown)", "> 6.30"],
  ["OC(c1ccc(Cl)nn1)c1cc(-c2ncnc3cc(N4CCOCC4)ccc23)c(F)cc1F (stereo not shown)", "5.30 to 6.30"],
  ["Cn1nc(C(O)c2cc(-c3ncnc4cc(N5CCOCC5)ccc34)c(F)cc2Cl)ccc1=O (single isomer, unassigned) [Example 45]", "> 6.30"]
]}

// batch mode: one pIC50 value per listed entry
1. O[C@H](c1ccc(F)c(-c2ncnc3cc(N4CCOCC4)ccc23)c1)c1nccnc1Cl
2. CC(C#N)Oc1ccc(C(O)c2cc(-c3ncnc4cc(N5CCOCC5)ccc34)c(F)cc2Cl)nn1 (single isomer, unassigned) [Example 103]
3. COc1ccc([C@@H](O)c2ccc(F)c(-c3ncnc4cc(N5CCOCC5)ccc34)c2)nn1
4. COc1nccnc1C(O)c1ccc(F)c(-c2ncnc3cc(N4CCOCC4)ccc23)c1 (stereo not shown) [Example 15]

## Output
1. > 6.30
2. 4.52 to 5.00
3. 5.30 to 6.30
4. > 6.30

// batch mode: one pIC50 value per listed entry
1. OCCOc1nccnc1C(O)c1ccc(F)c(-c2ncnc3cc(N4CCOCC4)ccc23)c1 (stereo not shown)
2. NC(=O)Cn1nc(C(O)c2cc(-c3ncnc4cc(N5CCOCC5)ccc34)c(F)cc2Cl)ccc1=O (stereo not shown)

## Output
1: 4.52 to 5.00; 2: 4.52 to 5.00

Taken from patent US9732094B2.
